Attribution: patent US20190367631A1

# Target: T1, human MSR1 extracellular domain expressed with a N-terminal nonahistidine tag (His9-hMSR1); R&D Systems, Cat … (human, UniProt P21757 77-451)
# T1 construct: extracellular domain; Bought reagent; also called His-hMSR1; 9xHis-hMSR1
# T1 sequence: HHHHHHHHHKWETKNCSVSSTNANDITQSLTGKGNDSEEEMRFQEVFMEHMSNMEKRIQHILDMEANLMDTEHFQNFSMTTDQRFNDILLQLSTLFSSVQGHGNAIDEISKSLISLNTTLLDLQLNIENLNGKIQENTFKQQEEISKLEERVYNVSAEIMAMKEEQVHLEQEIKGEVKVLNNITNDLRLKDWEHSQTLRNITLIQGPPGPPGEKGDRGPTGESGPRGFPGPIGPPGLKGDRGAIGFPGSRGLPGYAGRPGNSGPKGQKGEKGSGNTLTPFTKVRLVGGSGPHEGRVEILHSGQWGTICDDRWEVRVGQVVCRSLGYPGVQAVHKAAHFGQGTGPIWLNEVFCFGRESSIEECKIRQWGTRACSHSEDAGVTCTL
# Experimental protocol: SPR Biacore T200, 25 C, antibody captured by anti-human Fc, His9-hMSR1 injected;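 also: running buffer HBS-ET pH 7.4, rates from sensorgrams fitted to a 1:1 model including mass transport limitation, KD and half-life derived from the kinetic constants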
Classify: Fulfilled when t½ is strictly less than 30 min; Not fulfilled when t½ is not.

Worked examples follow.
H1H27734P-N297Q-LP1 (antibody, human IgG1, V domains shown, LXR agonist linker-payload LP1 clicked to azido-PEG3-amine on Q295 and Q297 (EU) of the heavy chain constant region, antibody-drug conjugate; human IgG1 Fc with N297Q (EU); also called H1H27734P-LP1) VH: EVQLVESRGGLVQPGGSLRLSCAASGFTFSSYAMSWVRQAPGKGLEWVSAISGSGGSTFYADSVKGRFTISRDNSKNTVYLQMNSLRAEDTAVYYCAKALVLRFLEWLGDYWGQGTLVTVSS VL: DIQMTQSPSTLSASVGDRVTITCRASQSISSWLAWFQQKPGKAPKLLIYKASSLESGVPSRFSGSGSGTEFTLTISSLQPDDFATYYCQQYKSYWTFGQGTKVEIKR | Fulfilled
H1H27729P-N297Q-LP1 (antibody, human IgG1, V domains shown, LXR agonist linker-payload LP1 clicked to azido-PEG3-amine on Q295 and Q297 (EU) of the heavy chain constant region, antibody-drug conjugate; human IgG1 Fc with N297Q (EU); also called H1H27729P-LP1) VH: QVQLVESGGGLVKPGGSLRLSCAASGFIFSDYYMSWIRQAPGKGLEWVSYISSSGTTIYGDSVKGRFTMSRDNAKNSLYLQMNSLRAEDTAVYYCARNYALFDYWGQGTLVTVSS VL: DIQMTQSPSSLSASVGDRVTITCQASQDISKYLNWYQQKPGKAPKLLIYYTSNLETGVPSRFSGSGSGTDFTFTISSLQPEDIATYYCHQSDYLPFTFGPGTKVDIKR | Fulfilled
H1H27739P-N297Q-LP1 (antibody, human IgG1, V domains shown, LXR agonist linker-payload LP1 clicked to azido-PEG3-amine on Q295 and Q297 (EU) of the heavy chain constant region, antibody-drug conjugate; human IgG1 Fc with N297Q (EU); also called H1H27739P-LP1) VH: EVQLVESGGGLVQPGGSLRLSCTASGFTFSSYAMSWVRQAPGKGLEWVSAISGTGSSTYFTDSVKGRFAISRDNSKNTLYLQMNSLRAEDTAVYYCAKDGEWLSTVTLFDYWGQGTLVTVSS VL: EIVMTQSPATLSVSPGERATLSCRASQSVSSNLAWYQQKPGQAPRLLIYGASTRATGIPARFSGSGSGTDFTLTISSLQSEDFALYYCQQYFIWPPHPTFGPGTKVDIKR | Fulfilled
H1H27747P-N297Q-LP1 (antibody, human IgG1, V domains shown, LXR agonist linker-payload LP1 clicked to azido-PEG3-amine on Q295 and Q297 (EU) of the heavy chain constant region, antibody-drug conjugate; human IgG1 Fc with N297Q (EU); also called H1H27747P-LP1) VH: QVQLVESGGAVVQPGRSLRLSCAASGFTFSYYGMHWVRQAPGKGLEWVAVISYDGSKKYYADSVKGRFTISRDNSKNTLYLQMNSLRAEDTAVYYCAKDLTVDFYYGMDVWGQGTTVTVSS VL: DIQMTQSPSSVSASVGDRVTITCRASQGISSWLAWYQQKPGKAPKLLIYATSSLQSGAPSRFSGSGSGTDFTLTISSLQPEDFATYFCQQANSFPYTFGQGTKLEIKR | Not fulfilled

Moving on to another binder below.
Hello, I'm reviewing records and need to know if t½ of H1H27731P-N297Q (antibody, V domains shown, human IgG1 Fc with N297Q (EU)) VH: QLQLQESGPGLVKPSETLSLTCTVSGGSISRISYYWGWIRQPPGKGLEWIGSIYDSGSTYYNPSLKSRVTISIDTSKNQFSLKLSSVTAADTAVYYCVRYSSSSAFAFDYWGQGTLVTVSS VL: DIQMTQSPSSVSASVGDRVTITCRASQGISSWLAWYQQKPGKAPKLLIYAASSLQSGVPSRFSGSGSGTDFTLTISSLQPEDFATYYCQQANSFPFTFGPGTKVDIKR is below 30 min. Could you check?
Not fulfilled
